Consider the following compounds; for each one, report its growth.
Tested on: SNB-19 CNS
Assay: NCI-60 one-dose screen, 48 h (100 = growth as untreated, 0 = no growth, -100 = all killed)
Settings: 10 µM unless noted
The panel holds about 83,000 compounds, 20% with a hit somewhere; the sample as a whole holds those more often.
One number for each entry, in %.

compound | observation_type | value_reported
COc1cccc(-c2nn(-c3ccccc3)cc2-c2ccnc(NCCCNC(=O)Nc3ccc(Cl)c(Cl)c3)c2)c1 | growth | 27.7
COc1ccc(C2C(c3nn[nH]n3)=C(N)Oc3c2ccc2ccccc32)cc1 (stereo not given) | growth | 67.3
CCOC(=O)c1csc(NC(=O)COc2cccc(/C=C3\Oc4cc(OC)ccc4C3=O)c2)n1 | growth | 83.4

// each compound listed below needs its growth
1. Cc1cc(NCc2cc(Nc3ccnc4cc(Cl)ccc34)ccc2F)nc(N2CCSCC2)n1
2. C=CC(=O)Nc1cccc(Oc2nccc(Nc3nnc(C4CC4)s3)n2)c1
3. NC(=S)Nc1cccc(O)c1
4. COC(=O)[C@]12CC[C@@H](C)[C@H](C)[C@@H]1C1=CC[C@@H]3[C@@]4(C)C(C=O)=C[C@@](C)(COC(C)=O)[C@@H]4[C@H](O)C[C@@]3(C)[C@]1(C)CC2
5. O=C(NCCNc1cc(-c2cn(-c3ccccc3)nc2-c2cccc(O)c2)ccn1)Nc1ccccc1

42.9
82.7
99.3
29.4
82.4

// each compound listed below needs its growth
1. COc1cc2c(cc1-c1c(C)noc1C)ncc1nc(C3CCCCC3)n(C3CCC(OC(F)F)CC3)c12 (stereo not given)
2. O=C1/C(=C2/C=Nc3ccccc32)N(O)c2ccccc21

1. 55.8
2. 93

----------
System: BT-549 breast
Assay: NCI-60 one-dose screen, 48 h
Settings: 10 µM unless noted
The panel holds about 83,000 compounds, 20% with a hit somewhere; the sample as a whole holds those more often. Calls of active or inactive are those of the source. How the source made its calls: active means growth percent below 10; inactive means the rest.
Choose the fitting class; nothing outside YES for active, NO for inactive is accepted.

Previously resolved entries follow.
compound | assayed_target | classification
Cc1cc(NCc2cc(Nc3ccnc4cc(Cl)ccc34)ccc2F)nc(N2CCN(c3ccccc3)CC2)n1 | BT-549 breast | NO
CN1CCN(CCCOc2ccc3nc(Nc4ccc(F)c(F)c4)ccc3c2)CC1 | BT-549 breast | NO
O=C(NCCCNc1cc(-c2cn(-c3ccccc3)nc2-c2cccc(O)c2)ccn1)c1cccc(O)c1 | BT-549 breast | NO
N#Cc1nc2c(S(=O)(=O)c3ccc(Cl)cc3)c(N)n(Nc3cccc(Cl)c3)c2nc1C#N | BT-549 breast | NO
N#C/C(=C/C=C/c1cccc(Cl)c1)S(=O)c1ccccc1 (stereo not given) | BT-549 breast | YES
CCN(CC)CCN1CC(O)=C(c2nc(-c3ccc(Cl)cc3)cs2)C1=N | BT-549 breast | NO
O=C(Nc1ccccc1-c1nc2ccccc2c(=O)[nH]1)c1cc2ccccc2[nH]1 | BT-549 breast | NO
O=C(NCCCNc1cc(-c2cn(-c3ccccc3)nc2-c2cccc(O)c2)ccn1)c1ccccc1 | BT-549 breast | NO
Cc1ccc(/C=C/c2c(C(=O)/C=C/c3ccc(C(F)(F)F)cc3)c(C)nc3ccccc23)cc1 | BT-549 breast | YES
O=C(Nc1cccc(C(F)(F)F)c1)Nc1cccc(C(F)(F)F)c1 | BT-549 breast | YES

Attention now turns to another entry.
Which outcome was entered for the compound `COc1ccc(/C=C/c2c(C(=O)/C=C/c3cccs3)c(C)nc3ccccc23)cc1` in this test?
NO

----------
Tested on: A498 renal
Assay: NCI-60 one-dose screen, 48 h (100 = growth as untreated, 0 = no growth, -100 = all killed)
Settings: 10 µM unless noted
This is part of a sample that, as a whole, favours compounds with a hit. Of some 83,000 tested, about 20% had one in any assay.
observation_type: growth (%)
Give bare numbers, in %.

Please review the entries below; each comes with its answer.
compound | value_unit | growth
Cc1c(C(=O)NC(Cc2ccccc2)C(O)C(=O)NCc2ccc(F)cc2)[nH]c2ccccc2c1=O (centres undefined) | % | 107
COc1ccc(C2c3ccc4ccccc4c3Oc3nc(C)[nH]c(=O)c32)cc1 (centres undefined) | % | 92.5
Cn1ccc2c(c1=O)C(=O)c1nccc3c1c-2nc1ccccc13 | % | 87.6
COc1cc(Cn2ncc3ccc(NC(=O)c4cc5ccccc5oc4=N)cc32)cc(OC)c1OC | % | 98.3
FC(F)(F)c1cc(Nc2ccc3cc(OCCCN4CCOCC4)ccc3n2)ccc1Cl | % | 36.4
COc1nc(N(C)O)nc(N(C)O)n1 | % | 76.7
O=C(Nc1ccccc1)Nc1cccc(Oc2nnc(Cl)c3ccccc23)c1 | % | 49.2
COc1ccc(C(=O)Nn2c(NCC(=O)N3c4ccccc4Sc4ccccc43)nnc2-c2ccc(O)cc2)cc1 | % | 90.2
CCCCCCCOc1c(OC)cc(C2CC(=O)Nc3c2c(C)nn3-c2nc3ccccc3[nH]2)cc1OC (centres undefined) | % | -28.6
Cc1ccc(-c2cc3c(cc2O)C2CCCCC2(N2CCOCC2)O3)cc1 (centres undefined) | % | 114

// each compound listed below needs its growth
1. CC(C)CCC[C@@H](C)[C@H]1CC[C@H]2[C@@H](Nc3ccc(O)cc3)CCC[C@]12C
2. O=C(N/N=C/C=C/c1ccc([N+](=O)[O-])o1)c1cc2ccccc2cc1O
3. NC1=NCc2nc3ccccc3c(=O)n2C1

67.6
-82.4
110

// each compound listed below needs its growth
1. COc1ccc(-c2nc(SCCC(C)C)nc(N/N=C\c3cccc(Cl)c3)c2C#N)cc1
2. COC(=O)[C@]12CC[C@@H](C)[C@H](C)[C@@H]1C1=CC[C@@H]3[C@@]4(C)C(C=O)=C[C@@](C)(COC(=O)c5ccco5)[C@@H]4C(=O)C[C@@]3(C)[C@]1(C)CC2

1. 42.5
2. 65.5

----------
Tested on: NCI/ADR-RES ovarian
Assay: NCI-60 one-dose screen, 48 h (100 = growth as untreated, 0 = no growth, -100 = all killed)
Conditions: 10 µM unless noted
About 83,000 compounds went through this panel and 20% of them were active in at least one assay; those are over-represented in the sample as a whole. Activity calls are given as the source filed them. Rule for the calls: active = growth percent below 10; inactive = the rest.
Consider the following compounds; for each one, report its growth.

// each compound listed below needs its growth
1. CS(=O)c1cccc(-c2ccc3nc(N)n(-c4ccc(C(F)(F)F)cc4)c(=O)c3c2)c1 (stereo not given)
2. NC(=N\N=C/c1ccccc1[N+](=O)[O-])/C(N)=N\N=C/c1ccccc1[N+](=O)[O-]
3. Cc1ccc(Nc2ccc(Nc3ccc(C)cc3)c3c2C(=O)c2cccc(O)c2C3=O)cc1
4. COc1cc(/C=C/C(=O)c2cccc(-n3cc(-c4ccccc4)[nH]c3=O)c2)ccc1O
5. O=C(CSc1nccc(Nc2ccc(S(=O)(=O)Nc3nccs3)cc2)n1)c1ccc(F)cc1

1: 103% (inactive); 2: 114% (inactive); 3: 99.8% (inactive); 4: 23.2% (inactive); 5: 101% (inactive)

// each compound listed below needs its growth
1. CC1OC(O[C@H]2/C=C/C=C/C=C/C=C/C=C/C=C/C=C/[C@H](C)[C@@H](O)[C@@H](C)[C@H](C)OC(=O)CC(O)CC(O)CCC(O)C(O)CC(O)C[C@]3(O)C[C@H](O)C(C(=O)O)C(C2)O3)C(O)[C@H](N)C1O (stereo not given in full)
2. O=c1cc(C2NNC(=S)N2)c2ccc3ccccc3c2o1 (stereo not given)

["-29.9% (active)", "101% (inactive)"]

// each compound listed below needs its growth
1. O=S(=O)(O)c1ccc(N/N=C/c2ccccc2Cl)cc1
2. Cc1ccc(S(=O)(=O)N/N=C\c2cc(Cl)ccc2O)cc1
3. O=c1c2c3c(sc2nc(N/N=C/c2ccc(Br)cc2)n1Cc1ccccc1)CCCC3
4. Nc1n[nH]c(-c2cc(Cl)ccc2O)c1-c1ccccc1
5. COc1ccc2c(c1)O/C(=C/c1ccc(OCC(=O)c3ccccc3)cc1)C2=O
6. Cc1ccc(C(=NN=C(N)N)c2ccc(C)cc2)cc1

["110% (inactive)", "71% (inactive)", "80% (inactive)", "79.3% (inactive)", "93.1% (inactive)", "6.63% (active)"]

// each compound listed below needs its growth
1. N#CC1=C(c2ccc(Br)cc2)NC(SCC(=O)c2ccc(Br)cc2)NC1=O (stereo not given)
2. COc1cccc(-c2nn(-c3ccccc3)cc2-c2ccnc(NCCNC(=O)c3ccccc3)c2)c1
3. C[C@@]1(CCC#N)[C@H]2CC[C@@H]3[C@H]4[C@H](C(=O)/C=C/c5cccnc5)CC[C@]4(C#N)CC[C@@]3(C)[C@]2(C)CC[C@H]1C(=O)/C=C/c1cccnc1

107% (inactive)
46.6% (inactive)
65.1% (inactive)

// each compound listed below needs its growth
1. COc1cc(C2CC(=O)Nc3c2c(C)nn3-c2nc3ccccc3[nH]2)cc2c1OCC(=O)N2 (stereo not given)
2. CN(C)CCCn1c(=O)c2ccccc2c2ccccc21
3. CCOC(=O)c1c(/C=C/C(=O)O)nc2ccccc2c1/C=C/c1ccccc1
4. Cc1ccc(Cl)cc1NC(=O)c1cc2ccccc2cc1O

93.2% (inactive)
78.3% (inactive)
32.7% (inactive)
-27.9% (active)

Value source: PubChem BioAssay (NCI)
